Where do the numbers come from? From the METLIN SMRT retention time set (Domingo-Almenara et al. 2019).

# ASSAY NAME: gradient 5% acetonitrile 3 min, to 50% in 2 min, to 85% in 15 min, held 3 min, 100 µL/min
# ASSAY SETUP: column: Zorbax Extend-C18 2.1 x 50 mm; eluents: water / acetonitrile, 0.1% formic acid
QUANTITY NAME: RP-LC retention time

>>> value_measured("COc1cccc(S(=O)(=O)N2CCC3(CC2)N(C)C(=O)CS3=O)c1 (stereo not given)")
"653 s"
>>> value_measured("COc1ccc(-c2cn3c(CC(=O)Nc4nccs4)csc3n2)cc1OC")
"653 s"

Provide RP-LC retention time for all items below, preserving their order.
1. CCCCNC(=O)c1cc(NC(=O)C2CCC2)cc2nc(C)ccc12
2. Cc1ccc(-c2nc(CCN(C)C(=O)NCCc3ccccc3)no2)cc1
3. O=C(Nc1cccs1)N1CC(c2nc(C3CC3)no2)C1

1. 644 s
2. 956 s
3. 681 s
